System: US3-6-EGFP-HCMV-AD169 viruses
Assay Procedure: Fluorescence decay assay against human cytomegalovirus
Type: cell-based, human cytomegalovirus (HCMV)
Setup Conditions: Human betaherpesvirus 5, AD169, MRC5, 240 h
Rule: EC50 below 70 nM gives yes, anything at or above gives no.

Q: Confirm or reject: EC50 of COc1ccc(C(F)(F)F)cc1N1C(N2CCC(F)(c3ccc(F)cc3)CC2)=Nc2c(csc2F)[C@H]1CC(=O)O (single isomer, unassigned) lies strictly below 70 nM
Result: no

Q: Confirm or reject: EC50 of COc1cc(N2[C@H](C)CN(C3=Nc4ccsc4[C@H](CC(=O)O)N3c3cc(C(F)(F)F)ccc3OC)C[C@H]2C)ccn1 (single isomer, unassigned) lies strictly below 70 nM
Result: yes

Q: Confirm or reject: EC50 of COc1cccc(N2CCN(C3=Nc4c(csc4F)[C@@H](CC(=O)O)N3c3cc(C(F)(F)F)ccc3OC)C[C@H]2C)c1 (single isomer, unassigned) lies strictly below 70 nM
Result: yes

Q: Confirm or reject: EC50 of COc1ccc(C(F)(F)F)cc1N1C(N2CCC(F)(c3ccc(F)cc3)CC2)=Nc2ccsc2[C@@H]1CC(=O)O (single isomer, unassigned) lies strictly below 70 nM
Result: no

Q: Confirm or reject: EC50 of COc1cccc(N2CCN(C3=Nc4ccsc4[C@@H](CC(=O)O)N3c3cc(C(F)(F)F)ccc3OC)C[C@H]2C)c1 (single isomer, unassigned) lies strictly below 70 nM
Result: no

Q: Confirm or reject: EC50 of COc1cccc(N2CCN(C3=Nc4cc(Cl)sc4[C@@H](CC(=O)O)N3c3cc(C(F)(F)F)ccc3OC)CC2)c1 (single isomer, unassigned) lies strictly below 70 nM
Result: no
